# system_tested: UniProtKB Q9NWZ3
# Sequence (Q9NWZ3 whole entry): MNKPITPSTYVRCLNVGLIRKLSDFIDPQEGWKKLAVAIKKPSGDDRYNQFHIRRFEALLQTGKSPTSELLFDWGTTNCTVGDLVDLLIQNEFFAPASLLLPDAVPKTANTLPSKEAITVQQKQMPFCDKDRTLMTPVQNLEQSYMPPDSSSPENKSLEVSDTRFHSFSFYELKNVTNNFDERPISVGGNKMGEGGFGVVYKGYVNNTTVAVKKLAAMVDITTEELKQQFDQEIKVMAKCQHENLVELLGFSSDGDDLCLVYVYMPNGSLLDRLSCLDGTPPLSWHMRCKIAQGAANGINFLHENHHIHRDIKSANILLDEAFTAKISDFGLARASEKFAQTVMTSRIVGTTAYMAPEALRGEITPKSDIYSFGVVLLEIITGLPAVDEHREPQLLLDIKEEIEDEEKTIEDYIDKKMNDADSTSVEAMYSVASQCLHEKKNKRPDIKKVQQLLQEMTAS
# assay: 2-hour 1 mM ATP IRAK4 Biochemical assay (as above, but with 100 pM IRAK4 and 1 mM ATP)
# test_settings: IRAK4 MSD BIOCHEMICAL (1 mM ATP) IC50 (μM), 100 pM IRAK4, 2 hours
test_readout: IC50 (µM)

| compound | system_tested | test_readout | observed_result |
| --- | --- | --- | --- |
| CCOc1nc2nc(CC3CCOC3)cn2cc1NC(=O)c1cccc(C(F)(F)F)n1 (single isomer, unassigned) [Example 94] | UniProtKB Q9NWZ3 | IC50 | 0.004 |

a = CCOc1cc2nc(C3CCOCC3)cn2cc1NC(=O)c1csc(CC)n1 [Example 202]
b = CC1(C)CCC1Oc1cc2nc(C3CCOCC3)cn2cc1NC(=O)c1cccc(C(F)F)n1 (centres unmarked) [Example 177]
c = CC12CC(c3cn4cc(NC(=O)c5cccc6c5OCC6)cc(OC(F)F)c4n3)(CO1)C2 [Example 421, 2,2,2-trifluoroacetate]
Incoming: # ascending order, key=IC50 The reply should contain the labels ordered as requested.
Outgoing: b, a, c
(b: 0.001 µM, a: 0.004 µM, c: 0.018 µM)

I = O=C(Nc1cn2cc(C3CCOCC3)nc2cn1)c1cccc(C(F)F)n1 [Example 330]
II = CC1(COc2cc3nc(CC4CCOC4)cn3cc2NC(=O)c2cccc(C(F)(F)F)n2)COC1 (centres unmarked) [Example 163]
III = CC(C)Oc1cc2nc(C3CC3)cn2cc1NC(=O)c1cccc(C(F)F)n1 [Example 526]
Incoming: Kindly order the items shown according to IC50, from the highest value down. As an answer, provide the labels arranged in the order called for.
Outgoing: I, II, III
(I: 0.038 µM, II: 0.007 µM, III: 0.001 µM)
